Origin of measurements: ChEMBL document CHEMBL4325830

// Isocitrate dehydrogenase [NADP] cytoplasmic (Homo sapiens) pIC50 records
pIC50: −log10 of the molar value.
MEASURED QUANTITY: pIC50

Worked cases, answers included:
{"COMPOUND STRUCTURE STRING": "C[C@@H]1C(=O)C(C#N)=C[C@]2(C)c3nc(Nc4ccccc4)ncc3CC[C@@H]12", "MEASURED TARGET": "Isocitrate dehydrogenase [NADP] cytoplasmic (Homo sapiens)", "pIC50": 6.39}
{"COMPOUND STRUCTURE STRING": "C[C@@H]1C(=O)C(C#N)=C[C@]2(c3cccc(C(=O)O)c3)c3n[nH]cc3CC[C@@H]12", "MEASURED TARGET": "Isocitrate dehydrogenase [NADP] cytoplasmic (Homo sapiens)", "pIC50": 5.82}
{"COMPOUND STRUCTURE STRING": "C[C@@H]1C(=O)C(C#N)=C[C@]2(c3ccccc3)c3nn(C(=O)c4ccccc4)cc3CC[C@@H]12", "MEASURED TARGET": "Isocitrate dehydrogenase [NADP] cytoplasmic (Homo sapiens)", "pIC50": 6.68}

A = C[C@@H]1C(=O)C(C#N)=C[C@]2(c3ccccc3)c3nc(Nc4cccnc4)ncc3CC[C@@H]12
B = C[C@@H]1C(=O)C(C#N)=C[C@]2(c3cccc(C(=O)O)c3)c3nc(Nc4ccccc4)ncc3CC[C@@H]12
(Q) Lower value of pIC50 belongs to which: A or B ? Please indicate the selected item by its label.
(A) A

1 = O=c1[nH]c2c(Br)c(Br)c(Br)c(Br)c2[nH]1
2 = C[C@@H]1C(=O)C(C#N)=C[C@]2(c3ccccc3)c3ncncc3CC[C@@H]12
(Q) Lower value of pIC50 belongs to which: 1 or 2 ? Please indicate the selected item by its label.
(A) 2
(2: 5.10, 1: 6.57)
